- STUDY_TARGET: RON (Homo sapiens)
- MEASUREMENT_PROTOCOL: sfRON cell mechanistic assay (HeLa), phosphorylated RON ELISA
- EXPERIMENTAL_CONTEXT: HeLa cells transfected with sfRON; inhibition of phosphorylated RON; four hours incubation; at least duplicate experiments; read-out: sfRON mech IC50
I'd appreciate it if you could supply IC50 values for the items below.

Past entries and their recorded results:
| SMILES_STRING | STUDY_TARGET | IC50 |
| --- | --- | --- |
| CC(=O)N1CCC(n2ncc(-c3cnc4[nH]cc([C@H](C)c5c(OC(F)F)ccc(F)c5Cl)c4c3)c2C)CC1 | RON (Homo sapiens) | ≤ 200 nM |
| COc1ccc(F)c(Cl)c1[C@@H](C)c1c[nH]c2ncc(-c3cn([C@H]4CC[C@H](O)CC4)nc3C)cc12 | RON (Homo sapiens) | ≤ 200 nM |
| Cc1c(-c2cnc3[nH]cc([C@H](CF)c4c(OC(F)F)ccc(F)c4Cl)c3c2)cnn1[C@H]1CC[C@H](O)CC1 | RON (Homo sapiens) | ≤ 200 nM |
| COc1ccc(F)c(Cl)c1[C@@H](C)c1c[nH]c2ncc(-c3cn(C)nc3C)cc12 | RON (Homo sapiens) | 200 to 1000 nM |

List the reported IC50 of each compound below.
1. Cc1c(-c2cnc3[nH]cc([C@H](C)c4c(OC(F)F)ccc(F)c4Cl)c3c2)cnn1C[C@@H](O)CO
2. COc1ccc(F)c(Cl)c1[C@@H](C)c1c[nH]c2ncc(-c3cnn([C@H]4CC[C@H](C(=O)N(C)C)CC4)c3C)cc12

# output
["≤ 200 nM", "200 to 1000 nM"]

List the reported IC50 of each compound below.
1. COc1ccc(F)c(Cl)c1[C@@H](C)c1c[nH]c2ncc(-c3cnn(C)c3C(N)=O)cc12
2. COc1ccc(F)c(Cl)c1[C@@H](C)c1c[nH]c2ncc(-c3cnn(CC(C)(C)O)c3C)cc12
3. C[C@H](c1c(OC(F)F)ccc(F)c1Cl)c1c[nH]c2ncc(-c3cnc([C@H]4CC[C@H](O)CC4)n3C)cc12
4. CCc1nn(CC(C)(C)O)cc1-c1cnc2[nH]cc([C@H](C)c3c(OC(F)F)ccc(F)c3Cl)c2c1
5. COc1ccc(F)c(Cl)c1[C@@H](C)c1c[nH]c2ncc(-c3cn(C)nc3CN)cc12

# output
1: > 1000 nM; 2: 200 to 1000 nM; 3: ≤ 200 nM; 4: 200 to 1000 nM; 5: > 1000 nM

====

I'd appreciate it if you could supply IC50 values for the items below.
- STUDY_TARGET: Aurora B (Homo sapiens, UniProt Q96GD4)
- Construct: HT-29 cells grown in complete growth media
- Sequence (Q96GD4 whole entry): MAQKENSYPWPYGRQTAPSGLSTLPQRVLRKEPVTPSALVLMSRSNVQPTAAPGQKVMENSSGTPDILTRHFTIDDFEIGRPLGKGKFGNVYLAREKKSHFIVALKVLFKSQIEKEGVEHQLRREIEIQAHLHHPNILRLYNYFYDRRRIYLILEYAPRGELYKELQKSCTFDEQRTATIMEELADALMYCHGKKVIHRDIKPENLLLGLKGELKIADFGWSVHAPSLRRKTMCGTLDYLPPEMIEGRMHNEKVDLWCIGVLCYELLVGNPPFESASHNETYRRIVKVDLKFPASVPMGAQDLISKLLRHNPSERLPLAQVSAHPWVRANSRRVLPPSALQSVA
- MEASUREMENT_PROTOCOL: Aurora B cell mechanistic assay (HT-29), phospho-Histone H3 (Ser10) ELISA
- EXPERIMENTAL_CONTEXT: HT-29 cell line; inhibition of phospho-Histone H3 (Ser10); at least duplicate experiments (italicized if single experiment); read-out: Aurora B mech IC50

Past entries and their recorded results:
| SMILES_STRING | IC50 |
| --- | --- |
| COc1ccc(F)c(Cl)c1[C@@H](C)c1c[nH]c2ncc(-c3cn([C@H]4CC[C@H](C(N)=O)CC4)nc3C)cc12 | 50 to 200 nM |
| CNC(=O)[C@H]1CC[C@H](n2nc(C)c(-c3cnc4[nH]cc([C@H](C)c5c(OC)ccc(F)c5Cl)c4c3)c2C)CC1 | > 1000 nM |

List the reported IC50 of each molecule below.
1. COc1ccc(F)c(Cl)c1[C@@H](C)c1c[nH]c2ncc(-c3cnn(CC(C)(C)O)c3C)cc12
2. COc1ccc(F)c(Cl)c1[C@@H](C)c1c[nH]c2ncc(-c3c[nH]nc3C)cc12

# output
["200 to 1000 nM", "200 to 1000 nM"]

====

- STUDY_TARGET: RON (Homo sapiens, UniProt Q04912)
- Sequence (Q04912 913-1400): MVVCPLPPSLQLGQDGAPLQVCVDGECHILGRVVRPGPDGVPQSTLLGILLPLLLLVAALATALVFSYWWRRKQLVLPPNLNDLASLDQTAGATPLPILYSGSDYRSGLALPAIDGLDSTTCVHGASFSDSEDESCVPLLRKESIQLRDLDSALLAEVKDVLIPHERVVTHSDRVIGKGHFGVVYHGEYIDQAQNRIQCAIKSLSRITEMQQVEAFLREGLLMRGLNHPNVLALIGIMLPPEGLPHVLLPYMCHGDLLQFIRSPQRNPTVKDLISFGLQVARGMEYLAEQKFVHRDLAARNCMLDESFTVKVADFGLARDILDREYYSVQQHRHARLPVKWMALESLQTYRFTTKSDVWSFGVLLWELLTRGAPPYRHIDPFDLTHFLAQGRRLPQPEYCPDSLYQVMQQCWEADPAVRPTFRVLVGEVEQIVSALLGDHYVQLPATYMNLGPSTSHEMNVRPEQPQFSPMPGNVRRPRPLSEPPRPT
- MEASUREMENT_PROTOCOL: sfRON cell mechanistic assay (HeLa), phosphorylated RON ELISA
- EXPERIMENTAL_CONTEXT: HeLa cells transfected with sfRON; inhibition of phosphorylated RON; four hours incubation; at least duplicate experiments; read-out: sfRON mech IC50
VALUE_KIND: IC50

| COMPOUND | RECORDED_RESULT |
| --- | --- |
| Cc1c(-c2cnc3[nH]cc([C@H](C)c4c(OC(F)F)ccc(F)c4Cl)c3c2)cnn1[C@H]1C[C@@H](O)C1 [Example 81] | 0.2 to 1 µM |

List the reported IC50 of each compound below.
1. COc1ccc(F)c(Cl)c1[C@@H](C)c1c[nH]c2ncc(-c3c(C)nn(C)c3C)cc12 [Example 4]
2. COc1ccc(F)c(Cl)c1[C@@H](C)c1c[nH]c2ncc(-c3cn([C@H]4CC[C@H](O)CC4)nc3OC)cc12 [Example 99]
3. COc1ccc(F)c(Cl)c1[C@@H](C)c1c[nH]c2ncc(-c3cn([C@H]4CC[C@H](C(N)=O)CC4)nc3C)cc12 [Example 19]
4. COc1ccc(F)c(Cl)c1[C@@H](C)c1c[nH]c2ncc(-c3cnn(C)c3C)cc12 [Example 3]

# output
["> 1 µM", "≤ 0.2 µM", "≤ 0.2 µM", "0.2 to 1 µM"]

====

I'd appreciate it if you could supply IC50 values for the items below.
- System: MKN45 cells
- MEASUREMENT_PROTOCOL: MKN45 cell proliferation assay (CellTiter-Glo)
- Type: cell-based
- EXPERIMENTAL_CONTEXT: Homo sapiens, MKN-45, 72 h; MKN45 cell line; 3 days incubation; at least duplicate experiments; read-out: Prolif. IC50

| SMILES_STRING | IC50 |
| --- | --- |
| Cc1c(-c2cnc3[nH]cc([C@H](C)c4c(OC(F)F)ccc(F)c4Cl)c3c2)cnn1C1CCC(=O)CC1 | ≤ 0.05 µM |
| CNC(=O)[C@H]1CC[C@H](n2nc(C)c(-c3cnc4[nH]cc([C@H](C)c5c(OC)ccc(F)c5Cl)c4c3)c2C)CC1 | ≤ 0.05 µM |
| COc1ccc(F)c(Cl)c1[C@@H](C)c1c[nH]c2ncc(-c3cnn([C@H]4CC[C@H](C(=O)N(C)C)CC4)c3C)cc12 | ≤ 0.05 µM |
| COc1ccc(F)c(Cl)c1[C@@H](C)c1c[nH]c2ncc(-c3cn(C[C@H](O)CO)nc3C)cc12 | ≤ 0.05 µM |
| COc1ccc(F)c(Cl)c1[C@@H](C)c1c[nH]c2ncc(-c3cnn([C@H]4CC[C@@H](N5CCNCC5)CC4)c3C)cc12 | 0.05 to 0.2 µM |

List the reported IC50 of each molecule below.
1. Cc1nn(C[C@@H](O)CO)c(C)c1-c1cnc2[nH]cc([C@H](C)c3c(OC(F)F)ccc(F)c3Cl)c2c1
2. COc1ccc(F)c(Cl)c1[C@@H](C)c1c[nH]c2ncc(-c3c(C)nn(CC(C)(C)O)c3C)cc12
3. Cc1c(-c2cnc3[nH]cc([C@H](C)c4c(OC(F)F)ccc(F)c4Cl)c3c2)cnn1[C@H]1CC[C@@H](N2CCC[C@H]2C(=O)O)CC1
4. COc1ccc(F)c(Cl)c1[C@@H](C)c1c[nH]c2ncc(-c3cnn(C)c3C)cc12

# output
≤ 0.05 µM
0.05 to 0.2 µM
0.2 to 1 µM
≤ 0.05 µM

List the reported IC50 of each molecule below.
1. Cc1c(-c2cnc3[nH]cc([C@H](C)c4c(OC(F)F)ccc(F)c4Cl)c3c2)cnn1[C@H]1CC[C@H](N2CCC[C@H]2C(=O)O)CC1
2. COc1ccc(F)c(Cl)c1[C@@H](C)c1c[nH]c2ncc(-c3c(C)nn(C)c3C)cc12
3. COc1ccc(F)c(Cl)c1[C@@H](C)c1c[nH]c2ncc(-c3cnn([C@@H]4C[C@@H](O)[C@@H](O)C4)c3C)cc12
4. COc1ccc(F)c(Cl)c1[C@@H](C)c1c[nH]c2ncc(-c3cnn([C@H]4CC[C@H](O)CC4)c3C)cc12
5. CCOc1ccc(F)c(Cl)c1[C@@H](C)c1c[nH]c2ncc(-c3c(C)nn(C[C@@H](O)CO)c3C)cc12

# output
0.05 to 0.2 µM
0.2 to 1 µM
≤ 0.05 µM
≤ 0.05 µM
≤ 0.05 µM

List the reported IC50 of each molecule below.
1. Cc1nn(C[C@@H](O)CO)c(C)c1-c1cnc2[nH]cc([C@H](C)c3c(Cl)ccc(F)c3Cl)c2c1
2. COc1ccc(F)c(Cl)c1[C@@H](C)c1c[nH]c2ncc(-c3cn(C[C@@H](O)CO)nc3C(F)(F)F)cc12
3. Cc1c(-c2cnc3[nH]cc([C@@H](C)c4c(OC(F)F)ccc(F)c4Cl)c3c2)cnn1[C@H]1CC[C@H](O)CC1
4. COc1ccc(F)c(Cl)c1[C@@H](C)c1c[nH]c2ncc(-c3cnn([C@H]4CC[C@@H](O)CC4)c3C)cc12
5. CCOc1ccc(F)c(Cl)c1[C@@H](C)c1c[nH]c2ncc(-c3cnn([C@H]4CC[C@H](O)CC4)c3C)cc12
6. Cc1c(-c2cnc3[nH]cc([C@H](C)c4c(OC(F)F)ccc(F)c4Cl)c3c2)cnn1C[C@@H](O)CO
7. CCc1c(-c2cnc3[nH]cc([C@H](C)c4c(OC(F)F)ccc(F)c4Cl)c3c2)cnn1CC(C)(C)O

# output
["≤ 0.05 µM", "0.05 to 0.2 µM", "> 1 µM", "≤ 0.05 µM", "≤ 0.05 µM", "≤ 0.05 µM", "0.05 to 0.2 µM"]
